# Test system: CAKI-1 renal
# Assay procedure: NCI tumour cell line growth inhibition, 48 h
Measured endpoint: TGI

Compound: O=C1Nc2c(Cl)cc(Cl)cc2/C1=N/N=C/c1ccccc1O
Tested system: CAKI-1 renal
TGI: 47.4 µM
//
Compound: COC(=O)c1c2c(c[n+]([O-])c1C)C(=O)C=C(NCc1ccccc1)C2=O
Tested system: CAKI-1 renal
TGI: 1.12 µM

In plain terms, CCOC(=O)[C@@H]1C2C(=C[C@H]3[C@H]1C(=O)N1CCCC[C@H]31)CCCN2C(=O)OCc1ccccc1 (some centres undefined) has a documented TGI of > 100 µM

GET /value?item= CN1C(NN)=NS(=O)(=O)c2ccccc21 &field=TGI returns > 100 µM

The value of TGI measured for the compound COc1ccc(C2=C(c3cn(C)c4ccccc34)C(=O)NC2=O)cc1 turned out to be > 25 µM

----------
# Tested on: SK-MEL-2 melanoma
# Assay procedure: NCI tumour cell line growth inhibition, 48 h
Measured endpoint: TGI

# molecule COc1ccc(C2=NN(C(=O)c3ccc(Cl)cc3)C(O)(c3cc(F)c(Cl)cc3Cl)C2)cc1OC (stereo not given) ; its TGI = > 100 µM

Consider C[C@]12CCC3c4ccc(O)cc4CC[C@H]3C1CC(=O)N(CCN1CCCC1)C2=O (stereo not given in full) . Its measured TGI is > 10 µM

TGI for S=C(Nc1c2c(nc3ccccc13)CCCC2)Nc1c2c(nc3ccccc13)CCCC2 is > 100 µM

For reference, reported TGI for CC[C@H]1C[C@@H](O)[C@@H]2[C@H](O)[C@H](O)CN2C1 stands at > 100 µM

The measured TGI associated with CC(=O)Nc1cc(C(=O)Nc2cc(C(=O)Nc3cc(C(=O)Nc4cc(C(=O)Nc5cc(C(=O)NCCC(=O)NCCCN(C)C)n(C)c5)n(C)c4)n(C)c3)n(C)c2)n(C)c1 reads > 100 µM

----------
# Test system: NCI-H460 lung
# Assay procedure: NCI tumour cell line growth inhibition, 48 h
Overview of recorded TGI for various molecules

Please review the entries below; each comes with its answer.
Molecule: C[C@]12CCc3nonc3C1CC[C@@H]1C2CC[C@]2(C)C(=O)CCC12 (some centres not stated)
TGI: > 100 µM

Molecule: Cc1nc(-c2nc(C)c(C(=O)/C=C/c3ccc(N(C)C)cc3)s2)sc1C(=O)/C=C/c1ccc(N(C)C)cc1
TGI: > 100 µM

Molecule: CC1=NC(C(=O)O)Cc2c1[nH]c1ccccc21 (configuration not stated)
TGI: > 100 µM

Molecule: O=C1C=CC(=O)c2c(O)c(CO)c(CO)c(O)c21
TGI: 2.79 µM

Record summary for COc1cc2c(cc1O)N=C[C@@H]1C[C@@H](F)CN1C2=O : reported TGI = 4.61 µM

The recorded TGI for c1ccc(N=C2SC(c3ccccc3)(c3ccccc3)c3ccccc32)cc1 is > 100 µM

Reported TGI of COc1c(Br)cc(Br)c(OC)c1-c1ccc[nH]1 : > 100 µM

----------
# System: COLO 205 colon
# Assay procedure: NCI tumour cell line growth inhibition, 48 h
Recorded TGI, one value per entry.

Use these answered entries as a reference point.
Molecule: O=C(O)c1ccccc1SCc1cccc2c(=O)c3ccc(Cl)cc3oc12
Reported: > 50 µM
//
Molecule: Cc1ccnc(NS(=O)(=O)c2ccc(NC3=CC(=O)C(=O)c4ccccc43)cc2)n1
Reported: > 100 µM
//
Molecule: CN1CC[C@]2(C)c3c(O)cccc3CC3CCCC1C32C (some centres undefined)
Reported: > 100 µM

Kindly review the next molecule as well.
The value of TGI measured for the molecule CC(C)=CC(=O)OCC(=O)O[C@@H]1C[C@]2(C(C)C)O[C@@]1(C)[C@@H]1CC[C@@H](C)[C@H]1[C@@H]2OC(=O)/C=C/c1ccccc1 turned out to be > 65.3 µM

----------
# Test system: CCRF-CEM leukemia
# Assay procedure: NCI tumour cell line growth inhibition, 48 h
Measured endpoint: TGI

Record summary for Cc1cccc(NC(=O)c2sc3nc4c(cc3c2N)CCCC4)c1 : reported TGI = > 100 µM

----------
# Tested on: COLO 205 colon
# Assay procedure: NCI tumour cell line growth inhibition, 48 h; in the data active = GI50 below about 0.43 µM; inactive = the rest
Answer with one of the outcomes active, inactive

Example entries and their recorded answers appear below.
Compound: CC(C)=CC(=O)OCC(=O)O[C@@H]1C[C@]2(C(C)C)O[C@@]1(C)[C@@H]1CC[C@@H](C)[C@H]1[C@@H]2OC(=O)/C=C/c1ccccc1
Category label: inactive
//
Compound: COC(=O)c1c2c(c[n+]([O-])c1C)C(=O)C=C(NCc1ccccc1)C2=O
Category label: active
//
Compound: O=c1c2cc(I)ccc2nc(-c2cccs2)n1-c1ccc(S(=O)(=O)Nc2nccs2)cc1
Category label: inactive
//
Compound: CC(C)(C)N=Cc1ccccc1[O-].CC(C)(C)N=Cc1ccccc1[O-].[Co+2]
Category label: inactive
//
Compound: Cn1cc(C2=C(Sc3ccccc3)C(=O)NC2=O)c2ccccc21
Category label: inactive

-- ask Dear colleague, could you share the recorded outcome for N#CC(C#N)=C/C=C(\Sc1ccc(F)c(Cl)c1)c1ccc(Cl)cc1 when you have a moment?
-- reply inactive

-- ask Assay result, entry Cc1cccc(NC(=O)c2sc3nc4c(cc3c2N)CCCC4)c1 — outcome?
-- reply inactive

-- ask Lab log entry: COc1cccc2c1C(=O)c1c(O)c3c(c(O)c1C2=O)C[C@@](O)(C(=O)CO)C[C@@H]3OC1CC(N)C(O)C(C)O1 (stereo partly specified) — outcome as called in the assay?
-- reply inactive

----------
# System: HT29 colon
# Assay procedure: NCI tumour cell line growth inhibition, 48 h
Measured TGI of individual entries

Compound: CCCCCCCCCCCCC[N+](C)(C)Cc1ccccc1
Measured endpoint: TGI
Reported: 1.93 µM
//
Compound: Cc1ccc(C(=O)Nc2ccc(S(=O)(=O)O)c3cc(S(=O)(=O)O)cc(S(=O)(=O)O)c23)cc1NC(=O)Nc1cc(C(=O)Nc2ccc(S(=O)(=O)O)c3cc(S(=O)(=O)O)cc(S(=O)(=O)O)c23)ccc1C
Measured endpoint: TGI
Reported: > 87.5 µM
//
Compound: CCOC(=O)C(=O)/C=C(\C)Nc1c(NC2OCC(OC(C)=O)C(OC(C)=O)C2OC(C)=O)nc(SC)[nH]c1=O (configuration not stated)
Measured endpoint: TGI
Reported: > 100 µM
//
Compound: CC(C(N)=O)N(C)C(=O)c1cc2ccccc2[n+](Cc2ccccc2)c1 (configuration not stated)
Measured endpoint: TGI
Reported: > 100 µM
//
Compound: O=C1c2ccccc2-c2c1c1ccccc1c(=O)n2-c1cccnc1
Measured endpoint: TGI
Reported: > 100 µM
//
Compound: Cc1cc(S(=O)(=O)Nc2nc(N)nc(N(C)C)n2)c(S)cc1Cl
Measured endpoint: TGI
Reported: > 10 µM

TGI measured on Cn1cc(C2=C(Sc3ccccc3)C(=O)NC2=O)c2ccccc21 = > 25 µM

Record summary for CC12OC(=O)[C@@]3(O)CCC4C(C[C@H]5O[C@]56CC=CC(=O)[C@]46C)C45OC[C@H]6C(=O)O[C@@H]1C[C@@]6(C)[C@H](C4=O)C23O5 (some centres not stated) : reported TGI = 8.99 µM

Recorded result, Cn1c(-c2ccc(/C=N/N=C/c3ccc(-c4c[n+]5ccccc5n4C)cc3)cc2)c[n+]2ccccc12 , TGI: > 100 µM

Consider COc1ccc2c(CCC(c3ccccc3)c3ccccc3)c3[n+](cc2c1OC)CCc1cc2c(cc1-3)OCO2 . Its measured TGI is 1.31 µM

Quick note, TGI for C=C(C)[C@@H]1CC[C@]2(CNCCO)CC[C@]3(C)[C@H](CC[C@@H]4[C@@]5(C)CCC(N)[C@@](C)(CO)[C@@H]5CC[C@]43C)[C@@H]12 (some centres not stated) landed at 3.18 µM

Recorded TGI (compound C=C(C)/C=C/C(O)[C@](C)(O)[C@H]1[C@H](O)C[C@@]2(C)[C@@H]3CCc4c(cc(OC5OC(CO)C(O)C(O)C5O)c(O)c4C)C3(C)C(=O)C[C@]12C (some centres not stated) ): > 100 µM

Given item CCCCCC(/C=N/Nc1ccccc1)C(O)(C(F)(F)F)C(F)(F)F (configuration not stated) , the value recorded as its TGI is > 100 µM

The measured TGI associated with Cc1ccc(N(C)S(=O)(=O)c2ccc([N+](=O)[O-])cc2)cc1 reads > 100 µM

What the record says about O=C(O)/C=N/NC(=S)NC1CCCCC1 : TGI is > 100 µM

// TGI value for O=C(Nc1cccc(C(F)(F)F)c1)C(=O)C(C(=O)c1ccc2ccccc2c1)C1OC(=O)c2ccccc21 (configuration not stated) : 38.2 µM

----------
Below is a list of entries, each paired with its recorded GI50 value.
# Tested on: BT-549 breast
# Assay procedure: NCI tumour cell line growth inhibition, 48 h

Known results for compounds:
Cpd smiles: COC(=O)c1c2c(c[n+]([O-])c1C)C(=O)C=C(NCc1ccccc1)C2=O
GI50: 169 nM
--
Cpd smiles: COc1cc(Nc2cc(C)nc(N3CCN(c4ccnc5cc(Cl)ccc45)CC3)n2)cc(OC)c1
GI50: 498 nM

Now for another entry.
CC[C@]12C=CCN3CC[C@]4(C(=C(C(=O)OC)C1)Nc1cc(OC)c(OC(C)=O)cc14)[C@@H]32 tested on BT-549 breast gave GI50: 244 nM
